Tested on: PRMT1 (protein arginine N-methyltransferase 1)
Test: small molecules binding arginine methyltransferase PRMT1 – biochemical, small-molecule microarray, 635 nm fluorescence, primary screen (AID 1088)
Details: higher = more signal
Classification field: enter rule met for composite z-score values not below 1, rule not met for values below it.

Example cases with answers are listed next.
- compound: "CCCCC(CC)C(O)C1C=CC2C(=O)N(c3ccccc3)C(=O)C2N1Nc1ccccc1F (stereo not given)"
  answer label: "rule met"
- compound: "CCCCCN1CC=CC23O[C@@H]4/C=C\\CCCOC(=O)C4[C@H]2C(=O)N(C(C)CO)[C@@H]3C1=O (stereo not given in full)"
  answer label: "rule met"
- compound: "C#Cc1cc2ccccc2oc1=O"
  answer label: "rule not met"
- compound: "[N-]=[N+]=NCc1ccccc1[C@H]1OC(c2ccc(OCCCO)cc2)=N[C@@]1(Cc1ccccc1N=[N+]=[N-])C(=O)NCC(O)CO (stereo not given in full)"
  answer label: "rule met"
- compound: "O=C1C[C@]2(c3ccc([N+](=O)[O-])cc3)C(=O)N(C3CC3)c3cc(CO)ccc3[C@H]2N1CC12CC3CC(CC(C3)C1)C2"
  answer label: "rule not met"
- compound: "COc1cccc(C)c1NC(=O)O[C@H]1[C@H](OC(=O)Nc2ccc3c(c2)OCO3)[C@@H](OC(=O)Nc2ccc3c(c2)OCO3)[C@@H](OC)O[C@@H]1CO"
  answer label: "rule met"
- compound: "CCCCC(O)C1C=CC2C(=O)N(C)C(=O)C2N1N(c1ccccc1)c1ccccc1 (stereo not given)"
  answer label: "rule met"
- compound: "COC(=O)[C@@]1(Cc2ccc(F)cc2)[C@H]2c3cc(C(=O)N4CCCC4)n(CCc4c[nH]c5ccccc45)c3C[C@H]2CN1C(=O)c1ccccc1"
  answer label: "rule met"
- compound: "COCCOC(=O)N1C(=O)[C@@]2(c3cc(C#CC4(O)CCCCCC4)ccc31)[C@H](c1ccc(O)cc1)N1[C@H](c3ccccc3)[C@H](c3ccccc3)OC(=O)[C@H]1[C@@H]2C(=O)N1CCN(c2ncccn2)CC1"
  answer label: "rule met"
- compound: "O=C1N(Cc2ccccc2)c2ccccc2C[C@]12N=C(c1ccc(OCCCO)cc1)O[C@@H]2c1ccccc1"
  answer label: "rule met"

Request: Kindly determine if composite z-score recorded for C=CCNC(=O)[C@@H]1[C@H]2C(=O)O[C@H](c3ccccc3)[C@H](c3ccccc3)N2[C@H](c2ccc(OCCO)cc2)[C@@]12C(=O)N(C(=O)OCCOC)c1ccc(C#Cc3ccc(OC)cc3)cc12 is above or exactly 1.
Result: rule met

Request: Kindly determine if composite z-score recorded for Cc1ccc(F)cc1S(=O)(=O)N[C@@H]1CCN(Cc2ccc(Br)cc2)C1 is above or exactly 1.
Result: rule not met

Request: Kindly determine if composite z-score recorded for C=CC[C@@H](OC(=O)Nc1ccc(SC)cc1)c1ccc(O)c(F)c1 is above or exactly 1.
Result: rule not met

Request: Kindly determine if composite z-score recorded for C=CCN1C(=O)[C@]2(CCC(=O)OC(C)(C)C)N=C(c3ccc(OCCCO)cc3)O[C@@H]2c2ccccc21 is above or exactly 1.
Result: rule met

Request: Kindly determine if composite z-score recorded for Cc1ccc(S[C@]2(C(=O)NCC(F)(F)F)CC(=O)N(Cc3cc(C(F)(F)F)cc(C(F)(F)F)c3)[C@@H]2c2ccc(CO)cc2)cc1 is above or exactly 1.
Result: rule met
